- Measured Target: Peroxisome proliferator-activated receptor alpha (Homo sapiens)
- Sequence (Q07869 whole entry): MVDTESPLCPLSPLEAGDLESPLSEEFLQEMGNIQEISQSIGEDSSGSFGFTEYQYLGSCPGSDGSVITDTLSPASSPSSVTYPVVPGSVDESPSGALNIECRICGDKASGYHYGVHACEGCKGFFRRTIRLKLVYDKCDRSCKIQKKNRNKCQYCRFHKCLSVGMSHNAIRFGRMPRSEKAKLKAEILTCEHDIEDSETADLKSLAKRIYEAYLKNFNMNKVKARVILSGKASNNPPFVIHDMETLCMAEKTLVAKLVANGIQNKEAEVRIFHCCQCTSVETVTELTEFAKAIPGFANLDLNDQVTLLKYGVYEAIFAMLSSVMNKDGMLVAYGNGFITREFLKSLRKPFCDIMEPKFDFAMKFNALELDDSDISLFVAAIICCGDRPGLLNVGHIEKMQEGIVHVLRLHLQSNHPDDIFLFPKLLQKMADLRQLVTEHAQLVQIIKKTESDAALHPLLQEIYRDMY
- Assay Summary: Compound was tested functionally in vitro for inducing 50% of the maximum alkaline phosphatase activity (Transactivation) against human Peroxisome proliferator activated receptor alpha using transfection assay in CV-1 cells

| Structure | EC50 [µM] |
| --- | --- |
| CN(CCOc1ccc(C[C@H](Nc2ccccc2C(=O)c2ccccc2)C(=O)O)cc1)c1nc2ccccc2o1 | 6.46 |
